Data origin: PubChem BioAssay (EPA / NIEHS)

Assay System: Bile acid receptor (Homo sapiens) (UniProt Q96RI1)
Sequence (Q96RI1 whole entry, looked up): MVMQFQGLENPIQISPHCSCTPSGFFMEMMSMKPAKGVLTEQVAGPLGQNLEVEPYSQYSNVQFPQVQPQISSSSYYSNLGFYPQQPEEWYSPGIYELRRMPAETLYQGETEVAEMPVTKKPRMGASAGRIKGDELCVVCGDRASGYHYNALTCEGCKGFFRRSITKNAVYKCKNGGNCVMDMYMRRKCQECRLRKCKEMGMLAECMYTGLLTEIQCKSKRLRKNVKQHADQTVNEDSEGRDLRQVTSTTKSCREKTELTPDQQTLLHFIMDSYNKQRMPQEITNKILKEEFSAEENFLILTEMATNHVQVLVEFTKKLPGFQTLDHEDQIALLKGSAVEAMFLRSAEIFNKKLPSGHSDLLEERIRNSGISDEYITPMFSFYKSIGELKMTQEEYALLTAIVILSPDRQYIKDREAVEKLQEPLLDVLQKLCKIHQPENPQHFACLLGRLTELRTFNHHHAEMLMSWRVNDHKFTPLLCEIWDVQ
Protocol Details: ATG_IR1_CIS: Attagene CIS-FACTORIAL HepG2 Assay for human Nuclear Receptor Subfamily 1 Group H Member 4 (NR1H4), IR1 submotif (AID 2282946)
Conditions: IR1 reporter transcription, actives raise or lower the signal
Active and inactive are the calls of the source. Rule for the calls: active = hit-call score of the fitted dose curve at least 0.9, where 1 is the maximum; inactive = score below 0.9.
Outcomes: 1 for active, 0 for inactive

{"Molecule": "CC(C)(Oc1ccc(CCNC(=O)c2ccc(Cl)cc2)cc1)C(=O)O", "Class Assignment": 0}
{"Molecule": "C=CCOC(=O)CCC1CCCCC1", "Class Assignment": 0}
{"Molecule": "O=C(O)CCCCCCCCCCC(=O)O", "Class Assignment": 0}
{"Molecule": "O=c1[nH]nnc2ccccc12", "Class Assignment": 0}
{"Molecule": "C=CC(C)(C)O", "Class Assignment": 0}
{"Molecule": "O=P(c1ccccc1)(c1ccccc1)c1ccccc1", "Class Assignment": 0}
{"Molecule": "CCCCCCCCCOC(C)=O", "Class Assignment": 0}
{"Molecule": "Clc1nc(C(Cl)(Cl)Cl)c(Cl)c(Cl)c1Cl", "Class Assignment": 1}
{"Molecule": "CCC(O)CO (centres undefined)", "Class Assignment": 0}
{"Molecule": "CC(=O)[C@H]1CC[C@H]2[C@@H]3CC=C4C[C@@H](O)CC[C@]4(C)[C@H]3CC[C@]12C", "Class Assignment": 0}
{"Molecule": "N#Cc1ccc(CC(=NNC(=O)Nc2ccc(OC(F)(F)F)cc2)c2cccc(C(F)(F)F)c2)cc1", "Class Assignment": 0}
{"Molecule": "O=Nc1ccc(Nc2ccccc2)cc1", "Class Assignment": 1}
{"Molecule": "CC(C)=CCCC(C)CC=O (centres undefined)", "Class Assignment": 0}
{"Molecule": "CC1=CC(=O)NS(=O)(=O)O1", "Class Assignment": 0}

* * *

Read-out: CD69, CD69 (gene 969)
Protocol Details: BSK_LPS_CD69: BioMAP Diversity Plus: LPS Assay for CD69 Biomarker Activity (AID 2284303)
Conditions: primary human HUVEC with PBMC
Method: BSK_LPS is a cell-based, multiplexed-readout assay that uses umbilical vein endothelium and peripheral blood mononuclear cells, a human vascular primary cell co-culture, with measurements taken at 24 hours after chemical dosing in a 96-well plate.BSK_LPS_CD69 is an assay component measured in the BSK_LPS assay. […] The levels of cell surface (or secreted, indicated by the prefix "s") biomarker endpoints were measured by ELISA. […] Plates were read after 6 h.
Calls of active or inactive are those of the source. The calls were made as follows: active = hit-call score of the fitted dose curve at least 0.9, where 1 is the maximum; inactive = score below 0.9.

{"Compound": "NCCNCCN", "outcome": "inactive"}
{"Compound": "CCC(=O)OCc1ccccc1", "outcome": "inactive"}
{"Compound": "Nc1cc([N+](=O)[O-])ccc1O", "outcome": "inactive"}
{"Compound": "CC[Si](OC(C)=O)(OC(C)=O)OC(C)=O", "outcome": "inactive"}
{"Compound": "CC(=O)[C@H]1CC[C@H]2[C@@H]3CC=C4C[C@@H](O)CC[C@]4(C)[C@H]3CC[C@]12C", "outcome": "inactive"}
{"Compound": "CC(=O)OCCC(C)CC(C)(C)C (centres undefined)", "outcome": "inactive"}
{"Compound": "OC1OC[C@@H](O)[C@H](O)[C@H]1O (some centres undefined)", "outcome": "inactive"}
{"Compound": "C[C@H]1C[C@@H]2[C@H]([C@@H](O)C[C@@]3(C)[C@H]2CC[C@]3(O)C(=O)CO)[C@@]2(C)C=CC(=O)C=C12", "outcome": "inactive"}
{"Compound": "COc1cc(C=O)ccc1OC(=O)C(C)C", "outcome": "inactive"}

* * *

Assay System: Nuclear receptor subfamily 1 group I member 2 (Homo sapiens) (UniProt O75469)
Sequence (O75469 whole entry, looked up): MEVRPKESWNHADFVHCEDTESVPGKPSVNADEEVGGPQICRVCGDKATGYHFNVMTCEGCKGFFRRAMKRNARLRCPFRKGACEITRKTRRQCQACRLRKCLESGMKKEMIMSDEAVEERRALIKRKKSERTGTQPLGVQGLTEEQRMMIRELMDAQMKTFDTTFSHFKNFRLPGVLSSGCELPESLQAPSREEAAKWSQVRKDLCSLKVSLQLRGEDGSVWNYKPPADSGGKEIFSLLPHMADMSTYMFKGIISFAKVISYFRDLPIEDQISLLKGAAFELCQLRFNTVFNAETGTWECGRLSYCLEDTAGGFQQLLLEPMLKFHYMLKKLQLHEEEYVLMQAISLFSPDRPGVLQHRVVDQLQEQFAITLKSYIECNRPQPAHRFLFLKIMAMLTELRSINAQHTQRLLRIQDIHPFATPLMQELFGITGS
Protocol Details: ATG_PXR_TRANS: Attagene TRANS-FACTORIAL HepG2 Assay for human Pregnane X Receptor (PXR) (AID 2283008)
Records with an inconclusive call do not appear. The source made the active and inactive calls. The calls were made as follows: active = hit-call score of the fitted dose curve at least 0.9, where 1 is the maximum; inconclusive = response in the unintended direction; inactive = score below 0.9.
Outcomes: active, inactive

{"Compound": "C[C@H]1C[C@@H]2[C@H]([C@@H](O)C[C@@]3(C)[C@H]2CC[C@]3(O)C(=O)CO)[C@@]2(C)C=CC(=O)C=C12", "Assay System": "Nuclear receptor subfamily 1 group I member 2 (Homo sapiens) (UniProt O75469)", "Class Assignment": "inactive"}
{"Compound": "O=c1cc(-c2ccccc2)oc2cc(O)cc(O)c12", "Assay System": "Nuclear receptor subfamily 1 group I member 2 (Homo sapiens) (UniProt O75469)", "Class Assignment": "inactive"}
{"Compound": "CCCCCCOC(=O)CC", "Assay System": "Nuclear receptor subfamily 1 group I member 2 (Homo sapiens) (UniProt O75469)", "Class Assignment": "inactive"}
{"Compound": "C[Si](O[Si](C)(C)C)O[Si](C)(C)C", "Assay System": "Nuclear receptor subfamily 1 group I member 2 (Homo sapiens) (UniProt O75469)", "Class Assignment": "inactive"}
{"Compound": "BrC1CCC(Br)C(Br)CCC(Br)C(Br)CCC1Br (stereo unspecified)", "Assay System": "Nuclear receptor subfamily 1 group I member 2 (Homo sapiens) (UniProt O75469)", "Class Assignment": "active"}
{"Compound": "CC(C)=CCCC(C)=CCCC(C)=CCO", "Assay System": "Nuclear receptor subfamily 1 group I member 2 (Homo sapiens) (UniProt O75469)", "Class Assignment": "active"}

* * *

Read-out: Matrix Metallopeptidase 9 (MMP9), MMP9 (gene 4318)
Protocol Details: BSK_KF3CT_MMP9: BioMAP Diversity Plus: KF3CT Assay for Matrix Metallopeptidase 9 (MMP9) Biomarker Activity (AID 2283074)
Conditions: primary human keratinocytes with fibroblasts; actives raise or lower the signal
Active and inactive are the calls of the source. The calls were made as follows: active = hit-call score of the fitted dose curve at least 0.9, where 1 is the maximum; inactive = score below 0.9.
Outcomes: T (active), F (inactive)

{"Compound": "O=C(O)c1cn(-c2ccc(F)cc2)c2cc(N3CCNCC3)c(F)cc2c1=O", "Class Assignment": "F"}
{"Compound": "CC(=O)OCCC(C)CC(C)(C)C (stereo not drawn)", "Class Assignment": "F"}
{"Compound": "CC1COc2ccccc2N1C(=O)C(Cl)Cl (stereo not drawn)", "Class Assignment": "T"}
{"Compound": "Cc1ccc(Nc2ccc(O)c3c2C(=O)c2ccccc2C3=O)cc1", "Class Assignment": "F"}
{"Compound": "O=C(O)c1cn(C2CC2)c2cc(N3CCNCC3)c(F)cc2c1=O", "Class Assignment": "F"}
{"Compound": "CC1CCC(C(C)CS)CC1S (stereo not drawn)", "Class Assignment": "T"}
{"Compound": "O=C=NC1CCC(CC2CCC(N=C=O)CC2)CC1 (stereo not drawn)", "Class Assignment": "F"}
{"Compound": "CCCCCCCCC=O", "Class Assignment": "F"}
{"Compound": "c1ccc2c(c1)c1cccc3ccc4cccc2c4c31", "Class Assignment": "F"}
{"Compound": "O=[N+]([O-])c1cc(C(F)(F)F)ccc1Cl", "Class Assignment": "F"}
{"Compound": "c1ccc2sc(SN(C3CCCCC3)C3CCCCC3)nc2c1", "Class Assignment": "T"}
{"Compound": "CC(=O)[C@H]1CC[C@H]2[C@@H]3CC=C4C[C@@H](O)CC[C@]4(C)[C@H]3CC[C@]12C", "Class Assignment": "F"}
{"Compound": "COC(=O)c1ccc(C)cc1", "Class Assignment": "F"}
{"Compound": "NCCNCCN", "Class Assignment": "F"}
{"Compound": "COc1cc(C=O)ccc1OC(=O)C(C)C", "Class Assignment": "F"}
{"Compound": "C=C(C)C(=O)O[C@H]1C[C@@H]2CC[C@@]1(C)C2(C)C", "Class Assignment": "T"}
{"Compound": "CC(=O)/C=C/C1=C(C)CCCC1(C)C", "Class Assignment": "F"}
{"Compound": "C=C[Si](OCC)(OCC)OCC", "Class Assignment": "F"}
{"Compound": "O=C(O)C[C@H](O)C[C@H](O)/C=C/c1c(C2CC2)nc2ccccc2c1-c1ccc(F)cc1", "Class Assignment": "F"}
{"Compound": "O=C1OC2(c3cc(Br)c(O)c(Br)c3Oc3c2cc(Br)c(O)c3Br)c2c(Cl)c(Cl)c(Cl)c(Cl)c21", "Class Assignment": "T"}
{"Compound": "CCCCC/C=C/C=C/C=O", "Class Assignment": "T"}
{"Compound": "CCCCC(CC)COCCC#N (stereo not drawn)", "Class Assignment": "F"}
{"Compound": "O=C(O)c1ccc([N+](=O)[O-])cc1", "Class Assignment": "F"}
{"Compound": "CCCCCCCCCCCCCCCCCC(=O)OCC(CC)CCCC (stereo not drawn)", "Class Assignment": "F"}
{"Compound": "O=P(c1ccccc1)(c1ccccc1)c1ccccc1", "Class Assignment": "F"}
{"Compound": "Cc1ccc2n[nH]nc2c1", "Class Assignment": "F"}
{"Compound": "O=C1CCCCCCCCCCCCCCO1", "Class Assignment": "F"}
{"Compound": "CCn1c2ccccc2c2cc(N)ccc21", "Class Assignment": "F"}
